tested on: 966289-007-R4-J1-PDC complex spheroid viability; assay: Anticancer human tumor 966289-007-R4-J1-PDC patient-derived pancreatic adenocarcinoma cell line growth inhibition [RAS]; details: compound 10 µM; hits give low values;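 note: spheroids exposed to agents for one week before readout; percent viability relative to DMSO vehicle control wells as 100%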
QUANTITY MEASURED: viability, T/C

Worked examples follow.
compound=C[C@@H](NC(=O)c1ncnc(N)c1Cl)c1ncc(C(=O)Nc2cc(C(F)(F)F)c(Cl)cn2)s1 quantity_measured="viability, T/C" result="99.5% [middle of 4 runs]"
compound="CC(C)NCC(C(=O)N1CCN(c2ncnc3c2C(C)CC3O)CC1)c1ccc(Cl)cc1 (centres undefined)" quantity_measured="viability, T/C" result="34.2% [middle of 4 runs]"
compound="CC(=O)OC12COC1CC(O)C1(C)C(=O)C(O)C3=C(C)C(OC(=O)C(O)C(NC(=O)OC(C)(C)C)c4ccccc4)CC(O)(C(OC(=O)c4ccccc4)C21)C3(C)C (centres undefined)" quantity_measured="viability, T/C" result="67% [middle of 4 runs]"

Please find the next compound below.
Which value of viability, T/C has been reported for NC1c2ccccc2OC12CCN(c1cnc3c(N4CCCc5ncccc54)n[nH]c3n1)CC2 (centres undefined) in the records?
99.6% [middle of 4 runs]

Attribution: PubChem BioAssay AID2060897
